Cited source: PubChem BioAssay AID256

Reported T/C values are given for each entry in this list.
System: CD2F1 mice, L1210 leukemia ip, survival T/C
Measurement notes: NCI In Vivo Anticancer Drug Screen. Data for tumor model L1210 Leukemia (intraperitoneal) in CD2F1 (CDF1) mice
Measurement conditions: endpoint: mean survival time; dose: 12.5 mg/kg/injection; schedule: Q01DX005 (ip); vehicle: distilled water + Tween-80; higher = longer survival
Toxic doses and inconclusive results are not listed.

Compound | T/C
O=c1ccn(C2CC3[O][Sn]([c]4ccccc4)([c]4ccccc4)[O]CC3O2)c(=O)[nH]1 (centres undefined) | 98 % of control
COC1OC(CO)C(n2cnc3c2c(=O)n(C)c(=O)n3C)C=C1NC(C)=O (centres undefined) | 100 % of control
CCCCCCCC(=O)/C=C/Sc1n[nH]c(=O)[nH]c1=O | 94 % of control
COP1(=S)OCC2OC(n3cc(C)c(=O)[nH]c3=O)CC2O1 (centres undefined) | 101 % of control
